For each of the compounds below, state its MHC.
- Test system: Erythrocyte
- protocol_summary: Hemolytic activity in human RBC incubated for 4 hrs by visual analysis
- Format: toxicity, cell-based

Record request: MHC value, item `CC(C)C[C@H](NC(=O)[C@@H](CC(C)C)NC(=O)[C@H](CC(C)C)NC(=O)[C@H](CCCCN)NC(=O)[C@@H](CC(C)C)NC(=O)[C@H](CC(C)C)NC(=O)[C@H](CCCCN)NC(=O)[C@@H](CC(C)C)NC(=O)[C@@H](CC(C)C)NC(=O)[C@H](CCCCN)NC(=O)[C@@H](N)CCCCN)C(N)=O`
> 2000 µg/mL

Another compound: `CC(C)C[C@H](NC(=O)[C@H](CC(C)C)NC(=O)[C@H](CC(C)C)NC(=O)[C@H](CCCCN)NC(=O)[C@H](CC(C)C)NC(=O)[C@H](CC(C)C)NC(=O)[C@H](CCCCN)NC(=O)[C@@H](CC(C)C)NC(=O)[C@H](CC(C)C)NC(=O)[C@@H](CCCCN)NC(=O)[C@@H](N)CCCCN)C(N)=O`
< 15.6 µg/mL

Another compound: `CC(C)C[C@H](NC(=O)[C@H](CC(C)C)NC(=O)[C@@H](CC(C)C)NC(=O)[C@H](CCCCN)NC(=O)[C@@H](CC(C)C)NC(=O)[C@@H](CC(C)C)NC(=O)[C@H](CCCCN)NC(=O)[C@@H](CC(C)C)NC(=O)[C@@H](CC(C)C)NC(=O)[C@H](CCCCN)NC(=O)[C@@H](N)CCCCN)C(N)=O`
> 2000 µg/mL

Another compound: `CC(C)C[C@H](NC(=O)[C@@H](CC(C)C)NC(=O)[C@H](CCCCN)NC(=O)[C@@H](CC(C)C)NC(=O)[C@H](CC(C)C)NC(=O)[C@@H](CCCCN)NC(=O)[C@H](CC(C)C)NC(=O)[C@@H](CC(C)C)NC(=O)[C@H](CCCCN)NC(=O)[C@H](N)CCCCN)C(=O)N[C@H](CC(C)C)C(N)=O`
> 2000 µg/mL

Another compound: `CC(C)C[C@H](NC(=O)[C@H](CC(C)C)NC(=O)[C@H](CC(C)C)NC(=O)[C@H](CCCCN)NC(=O)[C@H](CC(C)C)NC(=O)[C@H](CC(C)C)NC(=O)[C@H](CCCCN)NC(=O)[C@H](CC(C)C)NC(=O)[C@H](CC(C)C)NC(=O)[C@@H](CCCCN)NC(=O)[C@@H](N)CCCCN)C(N)=O`
< 15.6 µg/mL

Another compound: `CC(C)C[C@H](NC(=O)[C@H](CC(C)C)NC(=O)[C@@H](CCCCN)NC(=O)[C@H](CC(C)C)NC(=O)[C@H](CC(C)C)NC(=O)[C@@H](CCCCN)NC(=O)[C@H](N)CCCCN)C(=O)N[C@@H](CCCCN)C(=O)N[C@@H](CC(C)C)C(=O)N[C@H](CC(C)C)C(=O)N[C@H](CC(C)C)C(N)=O`
> 2000 µg/mL
